This listing pairs binders with measured Rhesus GIPR CAMP Assay (Conc. mAb @ 60% Inhibition in nM).
Target: T1, Rhesus GIPR (rhesus, UniProt F7E1R9 22-466)
T1 sequence: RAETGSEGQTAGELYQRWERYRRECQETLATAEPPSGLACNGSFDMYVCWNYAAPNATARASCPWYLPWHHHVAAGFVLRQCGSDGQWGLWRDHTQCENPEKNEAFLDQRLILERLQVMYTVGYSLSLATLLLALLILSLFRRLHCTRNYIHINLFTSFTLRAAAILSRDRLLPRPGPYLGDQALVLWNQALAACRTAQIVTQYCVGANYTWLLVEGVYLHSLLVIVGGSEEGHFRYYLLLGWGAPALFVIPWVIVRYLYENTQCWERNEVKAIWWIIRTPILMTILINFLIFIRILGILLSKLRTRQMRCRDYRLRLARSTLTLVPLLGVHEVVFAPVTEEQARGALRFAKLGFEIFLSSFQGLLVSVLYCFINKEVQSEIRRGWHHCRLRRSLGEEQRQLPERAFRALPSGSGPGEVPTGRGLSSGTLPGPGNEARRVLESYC
Test: cell-based or functional assay
Write down the numeric answer in nM and omit the unit.

These solved cases illustrate the format of a correct answer.
binder	readout_number
2G10_LC1 (antibody, human IgG1, kappa, N297G, V domains shown) VH: QVQLVESGGGVVQPGRSLRLSCAASGFTFSNYGMHWVRQAPGEGLEWVAAIWFDGSDKYYADSVKGRFTISRDNSKNTLYLQMNSLRAEDTAVYYCARDQAIFGVVPDYWGQGTLVTVSS VL: EIVMTQSPATLSVSPGERATLSCRASQSVSSNLAWYQQKPGQAPRLLIYGAATRATGIPARVSGSGSGTEFTLTISSLQSEDFAVYYCQQYNNWPLTFGGGTKVEIKR	0.67
17B11.002.001 (antibody, human IgG1, lambda, N297G, V domains shown) VH: QMQLVQSGAEVKKPGASVKVSCKASGYTFTSYDINWVRQATGQGLEWMGWMNPNSGGTGYAQKFQGRVTMTRDTSISTAYMELSSLRSQDTAVYYCARGGDYVWGSYRPYYYYYGMDVWGQGTTVTVSS VL: QSVLTQPPSVSAAPGQKVTISCSGSSSNIGNNYVSWYQQLPGTAPKLLIYDNNKRPSGIPDRFSGSKSGTSATLGITGLQTGDEADYYCGTWDSSLSAVVFGGGTKLTVLG	0.29

Next item in the queue.
Per the records, this binder ( 5G12.006 (antibody, human IgG1, kappa, N297G, V domains shown) VH: QVQLVESGGGVVQPGRSLRLSCTASGFTFSSYGIHWVRQAPGKGLEWVAVIWYDGSNKFHADSVKGRFTISRDNSKNTLYLQMNSLRAEDSAMYFCARGKVAGMPEAFEIWGQGTKVTVSS VL: DIQLTQSPSSLSASVGDRVTITCRASQTISRFLNWYQQKPGKAPELLIYVASSLQSGVPSRFSGSGSGTDFTLTISSLQPEDFATYYCQQSYSTLISFGQGTKLEITR ) has Rhesus GIPR CAMP Assay (Conc. mAb @ 60% Inhibition in nM) equal to 0.8

The reported measurements were obtained from patent US20250376529A1.
